B1: Intersectin-1, residues 909 to 971; numbered along this chain, Q15811 (parent)
chain: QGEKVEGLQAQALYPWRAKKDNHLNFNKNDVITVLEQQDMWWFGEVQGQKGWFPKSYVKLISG

variants of: B1; experiment: abundance fitness (aPCA) (normalised: wild type 0, dead -1); higher = more abundant; growth selection in yeast, the domain comes from the species named; conditions: Homo sapiens
assay-readout: abundance fitness

Exercise: Which abundance fitness is listed for G48E ?
Solution: 0.011

Exercise: I have this variant here, E3C , and I need its recorded abundance fitness.
Solution: -0.153

Exercise: Record request: abundance fitness value, item K59N
Solution: -0.114

Exercise: # input variant: F26G ; wanted: its abundance fitness
Solution: -1.02

List abundance fitness for every entry below, keeping the order given.
1. K20I
2. K59G
3. P54F
4. L60G
5. V46G
6. A12T

Solution:
-0.092
-0.424
-0.8
-0.18
-0.193
-0.841
